# Target or test system: sphingosine kinase 1 (SK1) (Homo sapiens)
# Sequence (Q9NYA1 whole entry, species assumed): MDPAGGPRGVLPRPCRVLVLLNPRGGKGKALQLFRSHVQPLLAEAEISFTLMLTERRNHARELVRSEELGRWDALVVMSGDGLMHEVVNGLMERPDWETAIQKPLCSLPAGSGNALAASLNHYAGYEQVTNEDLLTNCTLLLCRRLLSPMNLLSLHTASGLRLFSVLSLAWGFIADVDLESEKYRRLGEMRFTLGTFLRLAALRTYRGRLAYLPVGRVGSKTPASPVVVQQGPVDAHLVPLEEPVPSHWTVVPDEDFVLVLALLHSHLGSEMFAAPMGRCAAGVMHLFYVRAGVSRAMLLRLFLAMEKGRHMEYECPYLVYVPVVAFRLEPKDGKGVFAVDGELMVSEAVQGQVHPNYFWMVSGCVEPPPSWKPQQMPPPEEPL
# Protocol details: In vitro inhibition of purified recombinant sphingosine kinase 1
# Assay type: biochemical
# Stated conditions: purified recombinant enzyme; read-out: In Vitro IC50 on Sphingosine Kinase 1
pIC50: −log10 of the molar value. Where a name gives a salt, the structure may show the parent alone.
Measurement kind: pIC50

Molecule: CCCCCCCCCCCCC/C=C/[C@@H](O)[C@H](CO)NC(=N)N [LCL146, hydrochloride]
Target or test system: sphingosine kinase 1 (SK1) (Homo sapiens)
Measurement kind: pIC50
Endpoint value: 6.38

meta.source: patent US20120035268A1
